# Test system: HS 578T breast
# EXPERIMENTAL_DETAILS: NCI-60 one-dose screen, 48 h
# TEST_CONDITIONS: 10 µM unless noted
This is part of a sample that, as a whole, favours compounds with a hit. Of some 83,000 tested, about 20% had one in any assay. Calls of active or inactive are those of the source. Rule for the calls: active = growth percent below 10; inactive = the rest.
Thanks in advance; please answer with one of these: 1.0 = active, 0.0 = inactive

Some solved cases for reference:
COMPOUND | ASSIGNED_CLASS
C#CCOc1cccc(Nc2ncc3ncn(C4CCN(C(=O)CCl)C4)c3n2)c1 (centres undefined) | 0.0
C=C(CN1CC=CCC1)[C@@H]1CC[C@]2(COC(C)=O)CC[C@]3(C)[C@H](CC[C@@H]4[C@@]5(C)CC[C@H](O)C(C)(C)[C@@H]5CC[C@]43C)[C@@H]12 | 0.0
COc1ccc(Nc2nn3c(SCC(=O)c4ccc(C)cc4)nnc3s2)cc1 | 0.0
COc1ccc(-c2cc3cnc4ccccc4c3oc2=O)cc1 | 0.0
O=C(N/N=C/c1ccc(O)cc1O)c1cccc(Nc2ccnc(C(F)(F)F)c2)c1 | 0.0

Record request — test call for CNC(=O)c1cc(Oc2ccc3nc(NC(=O)Nc4ccc(C(F)(F)F)cc4)sc3c2)ccn1 0.0

One more compound: N#Cc1ccccc1-c1ccc(Cn2c(-c3cscn3)nc3c(Cl)cccc32)cc1 0.0

One more compound: O=C(NCc1ccc(Cn2c(=O)sn(-c3ccc(Cl)cc3)c2=O)cc1)OCc1ccc2c(Cl)cc(Cl)c(O)c2n1 0.0

One more compound: Nn1c(-c2ccc(Cl)cc2)nc2c(-c3ccc(Cl)cc3)nc3ccc(Cl)cc3c2c1=O 1.0
